Recorded values, source patent US10786474B2.

Experiment: Solubility of LD
Assay type: physicochemical
Settings: aqueous buffer; citrate buffered solution of about pH 4.5, 25° C.; read-out: solubility
recorded.endpoint: solubility

solubility for `N[C@@H](Cc1ccc(O)c(O)c1)C(=O)O` is ~34 mM
